Target: human Siglec-7 on primary human monocyte-derived dendritic cells (human, UniProt Q9Y286 19-467)
Sequence (Q9Y286 19-467): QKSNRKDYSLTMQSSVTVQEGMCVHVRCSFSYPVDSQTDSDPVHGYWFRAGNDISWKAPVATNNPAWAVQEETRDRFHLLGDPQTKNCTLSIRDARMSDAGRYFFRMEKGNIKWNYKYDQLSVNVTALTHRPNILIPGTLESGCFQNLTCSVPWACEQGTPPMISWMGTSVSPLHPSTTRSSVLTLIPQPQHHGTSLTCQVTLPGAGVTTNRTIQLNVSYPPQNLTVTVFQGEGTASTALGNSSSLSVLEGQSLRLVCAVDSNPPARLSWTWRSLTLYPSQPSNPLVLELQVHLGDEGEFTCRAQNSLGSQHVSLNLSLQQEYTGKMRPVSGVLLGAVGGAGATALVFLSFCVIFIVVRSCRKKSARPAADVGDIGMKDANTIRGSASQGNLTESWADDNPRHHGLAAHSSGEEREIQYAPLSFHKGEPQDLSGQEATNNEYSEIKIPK
Assay: cell-based or functional assay
# Fold increase in potency compared to Chimeric Ab per entry
Express it in fold; write the number only.

INSERT INTO assay_data (binder, unitofmeasure, resultnumber) VALUES
  ('S7AB-H8.10 (antibody, V domains shown) VH: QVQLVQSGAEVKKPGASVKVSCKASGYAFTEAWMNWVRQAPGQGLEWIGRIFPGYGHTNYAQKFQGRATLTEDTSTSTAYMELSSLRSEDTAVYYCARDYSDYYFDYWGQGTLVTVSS VL: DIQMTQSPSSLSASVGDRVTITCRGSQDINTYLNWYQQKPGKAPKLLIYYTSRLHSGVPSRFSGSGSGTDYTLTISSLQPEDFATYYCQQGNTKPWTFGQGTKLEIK', 'fold', 5.2),
  ('S7AB-H8.29 (antibody, V domains shown) VH: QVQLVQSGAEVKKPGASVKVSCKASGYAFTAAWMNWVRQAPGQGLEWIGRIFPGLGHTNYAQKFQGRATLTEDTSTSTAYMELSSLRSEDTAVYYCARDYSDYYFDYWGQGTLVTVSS VL: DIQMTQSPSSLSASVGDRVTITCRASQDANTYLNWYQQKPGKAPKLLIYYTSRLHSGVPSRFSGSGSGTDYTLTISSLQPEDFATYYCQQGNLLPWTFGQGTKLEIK', 'fold', 20);

Here is another binder to look at.
response.value for S7AB-H8.45.1 (antibody, V domains shown) VH: QVQLVQSGAEVKKPGASVKVSCKASGYAFTEAWMNWVRQAPGQRLEWIGRIFPGYGHTNYAQKFQGRATLTEDTSTSTAYMELSSLRSEDTAVYYCARDYSDYYFDYWGQGTLVTVSS VL: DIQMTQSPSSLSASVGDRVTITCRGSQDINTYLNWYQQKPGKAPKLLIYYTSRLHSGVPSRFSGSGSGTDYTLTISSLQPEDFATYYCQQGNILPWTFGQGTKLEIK (field: Fold increase in potency compared to Chimeric Ab) = 11.2
